Values compiled from ChEMBL document CHEMBL1201862.

Assignment: determine reported GI50 for the given molecules.
# Test system: OVCAR-4
# PROTOCOL DETAILS: NCI tumour cell line growth inhibition, 48 h
Activity calls are given as the source filed them. No stated cut-off is given here; in the data, active = GI50 up to about 1.1 µM and inactive = higher.

COC(=O)C1=C(C(=O)OC)C2(CCCCCC2=O)OC1=O (centres undefined)    > 100 µM (inactive)
COc1ccc2c(n1)Sc1nc3ccccc3nc1N2    67.3 µM (inactive)
COc1ccc(Nc2nc(NNC(=O)Cc3ccccc3)nc(NNC(=O)c3ccncc3)n2)cc1    > 10 µM (inactive)
C1=c2ccccc2=C2C(=C(c3ccccc3)C(c3ccccc3)=NN2c2ccccc2)S1    > 100 µM (inactive)

Would you mind listing GI50 for each of the following molecules?
1. COC(=O)C(CSSC[C@H](N/C(C)=C/C(C)=O)C(=O)OC)N/C(C)=C/C(C)=O (some centres undefined)
2. CC(C)[C@H]1NC(=O)[C@H]2N=C(O[C@@H]2C)[C@@H]2CCCN2C(=O)[C@H](Cc2ccccc2)NC(=O)[C@@H]2COC(=N2)[C@@H](Cc2ccccc2)NC(=O)[C@@H]2COC1=N2
3. CCOC(=O)/C=C(\C(=O)OCC)n1cnc2c(N)ncnc21
4. COC(=O)C1=C(C(=O)OC)C23CC4CCC2(C(=O)C1O3)C4(C)C (centres undefined)

["> 100 µM (inactive)", "> 100 µM (inactive)", "15.2 µM (inactive)", "> 100 µM (inactive)"]

Find GI50 (OVCAR-4) for the entry c1ccc(Nc2nnc(-c3nsc4ccccc34)o2)cc1
41 µM (inactive)
